# PROCEDURE SUMMARY: MRT (0 to infinity) in beagle dog at 2 mg/kg, iv by LC-MS/MS analysis
# Type: ADME, organism-based, Canis lupus familiaris
# APPLIED CONDITIONS: in vivo

| ITEM SMILES | UNIT STRING | MRT inf |
| --- | --- | --- |
| COCCN[C@H]1CC[C@H](Nc2cc(-c3csc(NCC4(C#N)CCOCC4)n3)c(Cl)cn2)CC1 | h | 20.4 |

###

# PROCEDURE SUMMARY: AUC (0 to t) in mouse at 10 mg/kg, po by LC-MS/MS analysis
# Type: ADME, organism-based
# APPLIED CONDITIONS: in vivo

| ITEM SMILES | AUC(0-t) [ng·h/mL] |
| --- | --- |
| COCCN[C@H]1CC[C@H](Nc2cc(-c3csc(NCC4(C#N)CCOCC4)n3)c(Cl)cn2)CC1 | 591 |

meta.source: ChEMBL document CHEMBL4261600
